Measured melting point, listed per entry for reference.

For orientation, consider the following solved cases.
{"MOLECULE": "CC(SSc1ccccc1C(=O)Nc1ccc(S(N)(=O)=O)cc1)C(=O)O (centres undefined)", "MEAS VALUE": "268 to 270 °C"}
{"MOLECULE": "O=C(O)COc1cccc2c1Cc1sc(S(=O)(=O)CCC(c3ccccc3)c3ccccc3)nc1-2", "MEAS VALUE": "131 to 133 °C"}
{"MOLECULE": "O=C1CCC(N2Cc3c(OCc4ccc(CN5CCN(S(=O)(=O)c6ccc(F)c(F)c6)CC5)cc4)cccc3C2=O)C(=O)N1 (centres undefined)", "MEAS VALUE": "225 to 227 °C"}
{"MOLECULE": "Fc1ccc2c(CN3CC=C(CCc4ccccc4)CC3)c[nH]c2c1", "MEAS VALUE": "150 to 152 °C"}

Please find the next molecule below.
IN: Endpoint output: melting point of O=C1NC(=S)SC1=Cc1cccc(Cl)c1Cl . Value?
OUT: 203 to 204 °C
